Target: T1, human TIM-3 on CHOK1 stable cell line (CHOK1-hTIM-3) (human, UniProt Q8TDQ0 22-301)
T1 sequence: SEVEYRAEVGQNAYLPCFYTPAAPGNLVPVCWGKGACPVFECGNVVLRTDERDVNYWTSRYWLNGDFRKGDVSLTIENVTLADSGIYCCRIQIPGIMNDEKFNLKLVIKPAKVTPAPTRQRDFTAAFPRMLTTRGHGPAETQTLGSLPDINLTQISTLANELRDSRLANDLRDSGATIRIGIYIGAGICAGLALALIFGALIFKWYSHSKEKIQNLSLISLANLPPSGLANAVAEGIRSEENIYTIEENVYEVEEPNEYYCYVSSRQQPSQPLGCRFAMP
Test: FACS, CHOK1-hTIM-3 cells, 0 nM antibody
Measurement Label: Mean fluorescence intensity
Please respond with just the number, no unit label.

Study these solved cases before continuing.
57F4E5 fully human TIM-3 antibody (human IgG4, kappa) (antibody, V domains shown) VH: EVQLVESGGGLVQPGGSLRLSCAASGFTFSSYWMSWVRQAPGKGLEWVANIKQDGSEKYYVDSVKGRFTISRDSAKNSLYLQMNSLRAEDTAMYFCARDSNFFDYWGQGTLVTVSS VL: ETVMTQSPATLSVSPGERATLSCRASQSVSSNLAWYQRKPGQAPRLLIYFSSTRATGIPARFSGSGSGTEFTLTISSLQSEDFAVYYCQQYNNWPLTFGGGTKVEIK :: 2.9
39E5H1 fully human TIM-3 antibody (human IgG4, kappa) (antibody, V domains shown) VH: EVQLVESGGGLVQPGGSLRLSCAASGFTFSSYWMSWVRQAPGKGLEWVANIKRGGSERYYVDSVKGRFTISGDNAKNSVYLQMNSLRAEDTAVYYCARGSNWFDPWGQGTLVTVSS VL: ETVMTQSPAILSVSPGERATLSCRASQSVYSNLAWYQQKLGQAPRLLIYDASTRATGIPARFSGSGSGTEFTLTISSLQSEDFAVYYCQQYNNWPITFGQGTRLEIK :: 2.8
134H3G6 fully human TIM-3 antibody (human IgG4, kappa) (antibody, V domains shown) VH: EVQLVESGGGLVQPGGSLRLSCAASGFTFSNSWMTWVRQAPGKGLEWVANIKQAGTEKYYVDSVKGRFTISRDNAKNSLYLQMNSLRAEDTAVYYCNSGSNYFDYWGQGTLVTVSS VL: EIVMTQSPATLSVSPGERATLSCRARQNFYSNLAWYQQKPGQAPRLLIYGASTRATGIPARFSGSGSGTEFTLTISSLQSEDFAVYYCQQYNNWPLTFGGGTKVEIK :: 2.8
34B6D8 fully human TIM-3 antibody (human IgG4, kappa) (antibody, V domains shown) VH: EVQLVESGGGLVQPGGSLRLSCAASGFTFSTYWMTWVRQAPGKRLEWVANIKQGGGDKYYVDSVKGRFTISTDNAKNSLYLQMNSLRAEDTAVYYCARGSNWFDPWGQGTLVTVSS VL: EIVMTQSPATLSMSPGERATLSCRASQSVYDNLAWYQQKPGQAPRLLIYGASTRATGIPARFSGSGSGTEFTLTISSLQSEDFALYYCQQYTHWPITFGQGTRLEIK :: 2.9
18D2H2 fully human TIM-3 antibody (human IgG4, kappa) (antibody, V domains shown) VH: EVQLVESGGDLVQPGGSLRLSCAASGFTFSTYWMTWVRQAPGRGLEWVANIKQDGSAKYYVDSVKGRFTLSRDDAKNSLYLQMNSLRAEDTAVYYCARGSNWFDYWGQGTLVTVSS VL: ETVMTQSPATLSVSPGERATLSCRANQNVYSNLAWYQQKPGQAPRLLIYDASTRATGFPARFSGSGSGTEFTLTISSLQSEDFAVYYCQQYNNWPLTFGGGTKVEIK :: 2.8

Q. Given the entry 7A4F10 fully human TIM-3 antibody (human IgG4, kappa) (antibody, V domains shown) VH: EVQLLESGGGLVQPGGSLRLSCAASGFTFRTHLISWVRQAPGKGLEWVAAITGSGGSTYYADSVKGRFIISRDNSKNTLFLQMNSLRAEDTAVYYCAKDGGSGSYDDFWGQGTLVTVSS VL: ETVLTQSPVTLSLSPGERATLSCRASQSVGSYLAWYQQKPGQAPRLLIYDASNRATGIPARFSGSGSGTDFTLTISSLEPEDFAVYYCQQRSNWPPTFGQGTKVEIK , report its measured Mean fluorescence intensity.
A. 2.8
